biological target: Recombinant (1-346) HPK1 (h) (Homo sapiens); construct: Recombinant (1-346) HPK1 (h) is incubated with 8 mM MOPS pH 7.0; assay: HPK1 Human STE Kinase Enzymatic Radiometric Assay; assay type: biochemical; settings: read-out: HPK1 IC50 nM Range*
Sequence (Q92918 1-346): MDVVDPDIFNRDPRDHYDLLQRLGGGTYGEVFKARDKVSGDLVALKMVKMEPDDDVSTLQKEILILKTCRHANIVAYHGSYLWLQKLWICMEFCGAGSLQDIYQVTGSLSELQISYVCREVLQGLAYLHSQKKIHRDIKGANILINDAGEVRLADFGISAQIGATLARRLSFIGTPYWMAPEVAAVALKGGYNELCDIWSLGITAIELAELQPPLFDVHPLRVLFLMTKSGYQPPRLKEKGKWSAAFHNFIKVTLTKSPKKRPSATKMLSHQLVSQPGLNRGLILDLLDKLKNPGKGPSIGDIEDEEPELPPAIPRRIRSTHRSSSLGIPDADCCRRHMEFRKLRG
Would you kindly list IC50 for each of these molecules?

Output measured IC50 for this item: CCN(C)Cc1cc(-c2cc(-c3ccc4c(=O)[nH]cc(F)c4c3)c(N)nc2F)ccc1OC 11 to 100 nM

Find the measured IC50 of COCCN1CCC(c2ccc(-c3cc(-c4ccc5c(c4)CCNC5=O)c(N)nc3Cl)cc2)CC1 and report it. 11 to 100 nM

State its IC50: COCCN1CCC(OC)(c2ccc(-c3cc(-c4ccc5c(c4)CCNC5=O)c(N)nc3F)cc2)CC1 0.1 to 10 nM

Provide measured IC50 value, entry: CN(C)Cc1cc(-c2cc(-c3ccc4c(c3)CCNC4=O)c(N)nc2F)ccc1N1CCN(C(=O)OC(C)(C)C)CC1 0.1 to 10 nM

Return reported IC50. Input molecule: Cc1c[nH]c(=O)c2ccc(-c3cc(-c4ccc([C@]56C[C@H]5CN(C)C6)cc4)c(F)nc3N)cc12 0.1 to 10 nM

Determine from records and report IC50 for CN1CCN(c2ccc(-c3cc(-c4cc5c(cc4F)C(=O)NCC5)c(N)nc3F)cc2)CC1 0.1 to 10 nM

Tell me its IC50 given Nc1nc(F)c(-c2ccc(C3CCN(CC(F)F)CC3)cc2)cc1-c1cc2c(cc1F)C(=O)NCC2 as the entry. 0.1 to 10 nM

State its IC50: CO[C@H]1CCN(Cc2nc(-c3cc(-c4ccc5c(c4)CCNC5=O)c(N)nc3F)ccc2N2CCOCC2)C1 0.1 to 10 nM

Note IC50 for the molecule shown: Nc1nc(F)c(-c2ccc(N3CCN(CCC(F)(F)F)CC3)cc2)cc1-c1cc2c(cc1F)C(=O)NCC2 0.1 to 10 nM

Answer with the recorded IC50 for the molecule listed here: Nc1nc(F)c(-c2ccc(N3CCOCC3)c(F)c2)cc1-c1cc(F)c2c(c1)CCNC2=O 0.1 to 10 nM

Could you please provide reported IC50 for Cc1nc2cc(-c3cc(-c4ccc([C@]56C[C@H]5CN(C)C6)cc4)c(F)nc3N)cc(F)c2c(=O)[nH]1 ? Thanks! 11 to 100 nM

Specify measured IC50 for Nc1nc(F)c(-c2ccc(N3CCN4CCOC[C@H]4C3)cc2)cc1-c1ccc2c(c1)CCNC2=O . 0.1 to 10 nM

In one line, give reported IC50 of the entry COCCN1CCC(Oc2ccc(-c3cc(-c4ccc5c(c4)CCNC5=O)c(N)nc3F)cc2C#N)CC1 . 0.1 to 10 nM

Name the recorded IC50 of the item Nc1nc(F)c(-c2ccc(N3CC[C@H](F)C3)cc2)cc1-c1ccc2c(c1)CCNC2=O in your answer. 11 to 100 nM

Consider the molecule Cc1c[nH]c(=O)c2c(F)cc(-c3cc(-c4ccc(N5CCN(C(C)C)CC5)cc4)c(F)nc3N)cc12 . State its measured IC50. 0.1 to 10 nM

For the molecule Cc1c[nH]c(=O)c2ccc(-c3cc(-c4ccc(C5CCOCC5)cc4)c(F)nc3N)cc12 , give its reported IC50. 11 to 100 nM
